Recorded IC50 by entry
assay: Modulation of P-gp (unknown origin) transfected in human MDA435/LCC6MDR cells assessed as reversible of paclitaxel resistance measured as IC50 for paclitaxel at 1 uM after 5 days by CellTiter 96 Aqueous assay

Compound: COc1ccc(C(=O)O[C@H]2Cc3c(OC)cc(OC)cc3O[C@@H]2c2cc(OC)c(OC)c(OC)c2)cc1
IC50, nM: 67
//
Compound: CC(=O)Oc1cc(OC(C)=O)c2c(c1)O[C@H](c1cc(OC(C)=O)c(OC(C)=O)c(OC(C)=O)c1)[C@H](OC(=O)c1cc(OC(C)=O)c(OC(C)=O)c(OC(C)=O)c1)C2
IC50, nM: 176
//
Compound: O=C(O[C@@H]1Cc2c(O)cc(O)cc2O[C@@H]1c1cc(O)c(O)c(O)c1)c1cc(O)c(O)c(O)c1 [(-)-Epigallocatechin-3-o-gallate]
IC50, nM: 124
